Origin of measurements: patent US20260258084A1

tested on: Pepsin; construct: purchased Merck Millipore; experiment: Protease stability in simulated gastric fluid (Pepsin-SGF, FaSSGF); type: in vitro ADME; conditions: simulated gastric fluid with pepsin (Pepsin-SGF), 60 min, 1 μM peptide, 37° C., read-out: FaSSGF 60 (min), remaining percent of peptide
Starred links: 1 amine or outer side, 2 acyl side, 3 side chain; linkers in the order of their positions; H or OH if unused. Positions of bridges follow the written chain, without caps; N, C: chain ends. Non-standard residues stand in square brackets, D forms with d. Residues, ends and D or L forms follow the SMILES beside them. *: point of attachment. X6 = O=C(CCC(=O)[*:3])N[C@@H](CS[*:2])C(=O)[*:1]; Trp(7-Me) = Cc1cccc2c(C[C@H](N)C(=O)O)c[nH]c12; X1 = O=C(CCCCN[*:3])N[C@@H](CS[*:2])C(=O)[*:1]; 2Nal = N[C@@H](Cc1ccc2ccccc2c1)C(=O)O; 3Pal = N[C@@H](Cc1cccnc1)C(=O)O; αMeL = CC(C)C[C@](C)(N)C(=O)O; Me2NCH2CH2 = CN(C)CC*; Aib = CC(C)(N)C(=O)O; Ahx = NCCCCCC(=O)O; Sar = CNCC(=O)O
Answer each item with its documented remaining at 1 h, 1 µM.
Give bare numbers, in %.

Find the measured remaining at 1 h, 1 µM: item COc1ccc(C[C@@H]2NC(=O)[C@@H]3CSSC[C@H](NC(=O)CCCCCNC(=O)C[C@@H](C(=O)N[C@@H](CC(N)=O)C(=O)N[C@@H](CC(N)=O)C(N)=O)NC(=O)C(C)(C)NC(=O)[C@H](Cc4ccc5ccccc5c4)NC2=O)C(=O)N[C@@H](CC(N)=O)C(=O)N[C@@H]([C@@H](C)O)C(=O)N[C@@H](Cc2c[nH]c4ccccc24)C(=O)N[C@@H](CCC(N)=O)C(=O)N3)cc1 [compound 3] ([Ahx]CNTWQCY(Me)[2Nal][Aib]DNN-NH2; disulfide 2-7; lactam N-11) , target or system Pepsin.
1

Find the measured remaining at 1 h, 1 µM: item CC(=O)NCCCC[C@@H]1NC(=O)[C@H](Cc2c[nH]c3c(C)cccc23)NC(=O)[C@@H](NC(C)=O)CCCCNC(=O)[C@@H]2CSSC[C@H](NC1=O)C(=O)N[C@@H](Cc1ccc(OCCN(C)C)cc1)C(=O)N[C@@H](Cc1ccc3ccccc3c1)C(=O)N[C@@](C)(CC(C)C)C(=O)N[C@H](C(=O)N[C@@H](CC(N)=O)C(=O)N[C@@H](Cc1cccnc1)C(=O)N(C)CC(N)=O)CCCCNC(=O)CCC(=O)N2 [compound 106] (Ac-K[Trp(7-Me)]K(Ac)CY(Me2NCH2CH2)[2Nal][αMeL]KN[3Pal][Sar]-NH2; linker 1-4-8 via X6) , target or system Pepsin.
90

Then there is this compound:
Find the measured remaining at 1 h, 1 µM: item CC(=O)NCCCC[C@@H]1NC(=O)[C@H](Cc2c[nH]c3c(C)cccc23)NC(=O)[C@@H](NC(C)=O)CCCCNC(=O)[C@@H]2CSSC[C@H](NC1=O)C(=O)N[C@@H](Cc1ccc(OCCN(C)C)cc1)C(=O)N[C@@H](Cc1ccc3ccccc3c1)C(=O)NC(C)(C)C(=O)N[C@H](C(=O)N[C@@H](CC(N)=O)C(=O)N[C@@H](Cc1cccnc1)C(=O)N(C)CC(N)=O)CCC(=O)NCCCCC(=O)N2 [compound 72] (Ac-K[Trp(7-Me)]K(Ac)CY(Me2NCH2CH2)[2Nal][Aib]EN[3Pal][Sar]-NH2; linker 1-4-8 via X1) , target or system Pepsin.
92

###

test: Solubility testing of peptides at different pH; assay type: physicochemical; details: 50 mM phosphate buffer pH 9.0; target concentration 1 mg/ml; 2 hours agitation; read-out: Solubility Buffer pH 9.0
Starred links: 1 amine or outer side, 2 acyl side, 3 side chain; linkers in the order of their positions; H or OH if unused. Positions of bridges follow the written chain, without caps; N, C: chain ends. Non-standard residues stand in square brackets, D forms with d. Residues, ends and D or L forms follow the SMILES beside them. *: point of attachment. X3 = CN(CCCCC(=O)N[C@@H](CS[*:2])C(=O)[*:1])[*:3]; Trp(7-Me) = Cc1cccc2c(C[C@H](N)C(=O)O)c[nH]c12; X1 = O=C(CCCCN[*:3])N[C@@H](CS[*:2])C(=O)[*:1]; 2Nal = N[C@@H](Cc1ccc2ccccc2c1)C(=O)O; AEF = NCCOc1ccc(C[C@H](N)C(=O)O)cc1; 3Pal = N[C@@H](Cc1cccnc1)C(=O)O; αMeL = CC(C)C[C@](C)(N)C(=O)O; Thp = NC1(C(=O)O)CCOCC1; Me2NCH2CH2 = CN(C)CC*; Sar = CNCC(=O)O
Readout type: solubility at 2 h

// known answers, use as guide
For the compound CC(=O)NCCCC[C@@H]1NC(=O)[C@H](Cc2c[nH]c3c(C)cccc23)NC(=O)[C@@H](NC(C)=O)CCCCNC(=O)[C@@H]2CSSC[C@H](NC1=O)C(=O)N[C@@H](Cc1ccc(OCCN(C)C)cc1)C(=O)N[C@@H](Cc1ccc3ccccc3c1)C(=O)NC1(CCOCC1)C(=O)N[C@H](C(=O)N[C@@H](CC(N)=O)C(=O)N[C@@H](Cc1cccnc1)C(=O)N(C)CC(N)=O)CCC(=O)NCCCCC(=O)N2 [compound 66] (Ac-K[Trp(7-Me)]K(Ac)CY(Me2NCH2CH2)[2Nal][Thp]EN[3Pal][Sar]-NH2; linker 1-4-8 via X1) , what solubility at 2 h is on record?
≥ 1130 µg/mL

For the compound CC(=O)N[C@H]1CCCCNC(=O)[C@@H]2CSSC[C@H](NC(=O)[C@H](CCC(N)=O)NC(=O)[C@H](Cc3c[nH]c4ccccc34)NC1=O)C(=O)N[C@@H](Cc1ccc(OCCN)cc1)C(=O)N[C@@H](Cc1ccc3ccccc3c1)C(=O)NC1(CCOCC1)C(=O)N[C@H](C(=O)N[C@@H](C)C(=O)NCC(N)=O)CCC(=O)N(C)CCCCC(=O)N2 [compound 17] (Ac-KWQC[AEF][2Nal][Thp]EAG-NH2; linker 1-4-8 via X3) , what solubility at 2 h is on record?
≥ 880 µg/mL

For the compound CC(=O)N[C@H]1CCCCNC(=O)[C@@H]2CSSC[C@H](NC(=O)[C@H](CCC(N)=O)NC(=O)[C@H](Cc3c[nH]c4ccccc34)NC1=O)C(=O)N[C@@H](Cc1ccc(OCCN)cc1)C(=O)N[C@@H](Cc1ccc3ccccc3c1)C(=O)N[C@@](C)(CC(C)C)C(=O)N[C@H](C(=O)N[C@@H](C)C(=O)NCC(N)=O)CCC(=O)N(C)CCCCC(=O)N2 [compound 18] (Ac-KWQC[AEF][2Nal][αMeL]EAG-NH2; linker 1-4-8 via X3) , what solubility at 2 h is on record?
< 10 µg/mL

For the compound CC(=O)NCCCC[C@@H]1NC(=O)[C@H](Cc2c[nH]c3c(C)cccc23)NC(=O)[C@H]([C@@H](C)O)NC(=O)[C@H](CC(N)=O)NC(=O)[C@@H]2CSSC[C@H](NC1=O)C(=O)N[C@@H](Cc1ccc(OCCN(C)C)cc1)C(=O)N[C@H](Cc1ccc3ccccc3c1)C(=O)NC1(CCOCC1)C(=O)N[C@H](C(=O)N[C@@H](CC(N)=O)C(=O)N[C@@H](Cc1cccnc1)C(=O)N(C)CC(N)=O)CCC(=O)NCCCCC(=O)N2 [compound 35] , what solubility at 2 h is on record?
≥ 1140 µg/mL

Then there is this compound:
For the compound CC(=O)N[C@H]1CCCCNC(=O)[C@@H]2CSSC[C@H](NC(=O)[C@H](CCC(N)=O)NC(=O)[C@H](Cc3c[nH]c4ccccc34)NC1=O)C(=O)N[C@@H](Cc1ccc(OCCN)cc1)C(=O)N[C@@H](Cc1ccc3ccccc3c1)C(=O)N[C@@](C)(CC(C)C)C(=O)N[C@H](C(=O)N[C@@H](C)C(=O)N[C@H](CC(C)C)C(N)=O)CCC(=O)N(C)CCCCC(=O)N2 [compound 44] (Ac-KWQC[AEF][2Nal][αMeL]EA[dL]-NH2; linker 1-4-8 via X3) , what solubility at 2 h is on record?
< 10 µg/mL
